B1: library; numbered along this chain (parent)
chain: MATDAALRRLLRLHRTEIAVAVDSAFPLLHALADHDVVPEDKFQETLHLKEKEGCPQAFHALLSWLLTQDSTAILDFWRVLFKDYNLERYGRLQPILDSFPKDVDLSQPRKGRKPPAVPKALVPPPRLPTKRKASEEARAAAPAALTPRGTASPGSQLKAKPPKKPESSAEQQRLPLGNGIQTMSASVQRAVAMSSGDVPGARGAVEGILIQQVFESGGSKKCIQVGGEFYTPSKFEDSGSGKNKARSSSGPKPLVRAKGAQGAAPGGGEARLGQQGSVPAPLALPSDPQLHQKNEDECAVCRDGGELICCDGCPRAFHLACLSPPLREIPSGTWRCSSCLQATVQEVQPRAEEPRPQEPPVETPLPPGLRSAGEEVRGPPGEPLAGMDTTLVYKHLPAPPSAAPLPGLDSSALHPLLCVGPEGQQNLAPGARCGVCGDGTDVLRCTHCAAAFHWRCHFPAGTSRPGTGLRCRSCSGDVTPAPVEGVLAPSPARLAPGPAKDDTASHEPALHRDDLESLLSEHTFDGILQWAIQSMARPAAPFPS

Variants of: B1
Assay: AIRE transcriptional activation functional score (insulin promoter-GFP; nonsense median 0, synonymous median 1) (normalised score); higher = higher AIRE activity (more reporter activation)
Settings: with insulin promoter-GFP reporter in HEK293
Measured AIRE transcriptional activation functional score accompanies every entry in the list below.
measured property: AIRE transcriptional activation functional score

[[record]]
mutant_name = "G374F"
meas_value = 2.03

[[record]]
mutant_name = "D238Y"
meas_value = 1.12

[[record]]
mutant_name = "D34T"
meas_value = -1.22

[[record]]
mutant_name = "P266H"
meas_value = 1.08

[[record]]
mutant_name = "P162Y"
meas_value = 2.9

[[record]]
mutant_name = "A160G"
meas_value = 0.964

[[record]]
mutant_name = "Q426F"
meas_value = 1.34

[[record]]
mutant_name = "L28S"
meas_value = -0.39

[[record]]
mutant_name = "Q189E"
meas_value = 1.01

[[record]]
mutant_name = "T504M"
meas_value = 0.913

[[record]]
mutant_name = "I209Y"
meas_value = 0.98

